The reported measurements were obtained from PubChem BioAssay AID2052.

Procedure summary: murine CD8 T cell vesicle adhesion modulation – mouse 2C CD8+ T cells, flow cytometry, primary screen (AID 2052);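 as to double positive events: binding gate set so that unloaded-vesicle control wells show 10% double positive cells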
Reported conditions: 2C CD8+ T cell-vesicle binding, at 7 µM, stronger effect = lower value; measured here: CD8+ vesicle-bound cell fraction
The campaign covered roughly 330,000 compounds. About 220 (0.067%) were called active. This is one part of a sample in which actives are shown more often than they occur.
Test readout: double positive events (%)
The response must be a number in % with no trailing unit.

INPUT: State the recorded double positive events for this entry: `CS(=O)(=O)N(CC(=O)Nc1ccc(F)cc1F)c1cccc([N+](=O)[O-])c1`
OUTPUT: 31.4

INPUT: Please look up its double positive events: CC1(C)C[C@H]2C3=CCC4[C@@]5(C)CC[C@H](O)[C@](C)(CO)C5CC[C@@]4(C)[C@]3(C)C[C@@H](O)[C@@]2(CO)[C@@H](O)[C@@H]1O (stereo not given in full)
OUTPUT: 14.8

INPUT: Fill in the blank: the reported double positive events of CC1=C(C(=O)OC2CCCCC2)C(c2ccccc2F)NC(=O)N1 (stereo not given) is ____.
OUTPUT: 33.6

INPUT: Query (molecule): `COc1ccccc1C(=O)Nc1ccnn1C1CCN(C(=O)C(C)(C)C)CC1` ; field requested: double positive events
OUTPUT: 51.4

INPUT: I am curious: what double positive events value has been reported for O=C(NN1C(=O)C2C3C=CC(C3)C2C1=O)c1ccco1 (stereo not given) ?
OUTPUT: 43

INPUT: Requested read-out: double positive events. Entry: `CCCCn1c(N)c(N2CCOCC2)c(=O)n(CC(=O)NCCc2ccccc2)c1=O`
OUTPUT: 52.1

INPUT: // lookup double positive events for OC(CNCc1ccc(Cl)c(Cl)c1)c1ccccc1 (stereo not given)
OUTPUT: 58.3

INPUT: Tell me the measured double positive events of `COc1ccc(CN(C)C(=S)Nc2ccc(Cl)cc2Cl)cc1` , please.
OUTPUT: 9.4

INPUT: Requested field: double positive events. Item: `CCSc1nnc(SCC(=O)NNC(=O)c2ccccc2F)s1`
OUTPUT: 59.2

INPUT: What measured double positive events goes with O=C(CC1Oc2ccccc2NC1=O)NCCCN1CCN(Cc2ccccc2)CC1 (stereo not given) ?
OUTPUT: 40.4

====

Procedure summary: murine CD8 T cell vesicle adhesion modulation – mouse 2C CD8+ T cells, flow cytometry, primary screen (AID 2052);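 as to response (vesicle binding): values below 100% mean blocked vesicle binding to the CD8+ T cells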
Reported conditions: 2C CD8+ T cell-vesicle binding, at 7 µM, stronger effect = lower value
Hit rate of the full screen: of about 330,000 compounds, about 220 (0.067%) were called active. Many of the other results were omitted from the sample, so actives are more common in it than they were.
Response field label takes met when response (vesicle binding) is strictly below 300% and not met in all other cases.

INPUT: For `COc1cc(/C=C/C(=O)N2CCc3ccccc3C2)cc(OC)c1OC` , is the recorded response (vesicle binding) below the cut-off of 300%?
OUTPUT: met

INPUT: Item `Cc1oc2c(F)c(F)c(F)c(F)c2c1S(=O)(=O)Nc1cccc(C(F)(F)F)c1` : response (vesicle binding) beneath 300%, strictly?
OUTPUT: met

INPUT: State whether 300% exceeds response (vesicle binding) recorded for CN1C(C(=O)NCC2CC2)CC2Cn3c(nc4ccccc43)C21 (stereo unspecified) .
OUTPUT: not met

INPUT: Below 300% on response (vesicle binding)? Entry `O=C(CSc1ccc(-c2ccccn2)nn1)Nc1ccccc1`
OUTPUT: met

INPUT: Threshold test, response (vesicle binding) < 300%: `Cc1cc(C)n2nc(C(=O)OCC(=O)N(C)CC(=O)Nc3ccc(F)cc3)nc2n1`
OUTPUT: not met

INPUT: Determine if Cc1cccc(C(=O)NCc2nnc(SC(C)C(=O)Nc3nnc(C)s3)n2C)c1 (stereo unspecified) shows response (vesicle binding) strictly lower than 300%.
OUTPUT: met
